Test system: Shigella sonnei N9
PARAMETER MEASURED: MIC (µg/mL)
Entry rule: numbers only, all in µg/mL.

Give the measured MIC for CNC1C(OC2OC(CO)C(N)C(O)C2O)OC2CC(N)C(OC3C(N)CC(NC(=O)C(O)CCN)C(O)C3O)OC2C1O (stereo not shown) [Test Compound 1]
16

Give a short answer stating reported MIC for CCNC1CC(N)C(OC2OC3C(CC2N)OC(OC2OC(CO)C(N)C(O)C2O)C(NC)C3O)C(O)C1O (stereo not shown) [Test Compound 4, 1-N-ethylapramycin] .
16

Please indicate MIC recorded for CNC1C(OC2OC(CO)C(N)C(O)C2O)OC2CC(N)C(OC3C(N)CC(NC(=O)CN)C(O)C3O)OC2C1O (stereo not shown) [Test Compound 3, 1-N-glycylapramycin]
128

// Input: NCC[C@H](O)C(=O)N[C@@H]1C[C@H](N)[C@@H](O[C@H]2O[C@H](CN)[C@@H](O)C[C@H]2N)[C@H](O)[C@H]1O [Test Compound 5] . Output its MIC only.
16
